- method.notes: p53 small molecule agonists, cell-based qHTS assay: qHTS cell viability counter screen (AID 1963581); note: nearly all actives have a fitted effect of over 45% in size
- setup.conditions: p53RE-bla HCT-116 viability, ATP luminescence, 16 h; series mostly up to 66 µM
Inconclusive results are not listed. Activity calls are given as the source filed them. Calls come from the whole dose curve.
Pick one and only one: active, inactive

Below, 3 molecules whose answers are already recorded.
CC(Oc1cccc(Cl)c1)C(=O)O (stereo unspecified) = inactive
[C-]1=CC=CC1.[Cl][Zr+2][Cl].c1cc[cH-]c1 = inactive
CC(O)C(=O)[O][Hg][c]1ccccc1 (stereo unspecified) = active

# input Record request — test call for OC(Cc1ccccc1Cl)(Cn1[nH]cnc1=S)C1(Cl)CC1 (stereo unspecified)
# output inactive

# input Repeat for the following molecule: `CCOc1cc(Oc2ccc(C(F)(F)F)cc2Cl)ccc1[N+](=O)[O-]`
# output inactive
